# SUBJECT_OF_TEST: Sodium-dependent dopamine transporter (Macaca mulatta)
# TEST_PROTOCOL: Inhibition of [3H]WIN-35428 Binding to the Dopamine Transporter in Rhesus (Macaca mulatta) orCynomolgus Monkey (Macaca fascicularis) Caudate-Putamen

COMPOUND: N#CC(c1ccc(Cl)c(Cl)c1)C1CCCC1 (configuration not stated)
IC50 [µM]: 0.128
//
COMPOUND: COC(=O)[C@H](c1ccc2ccccc2c1)[C@@H]1CCCCO1 (single isomer, unassigned)
IC50 [µM]: 4
//
COMPOUND: COC(=O)C(c1ccc(Cl)c(Cl)c1)C1CCCC1 (configuration not stated)
IC50 [µM]: 0.047
//
COMPOUND: COC(=O)[C@H](c1ccccc1)[C@@H]1CCCCO1 (single isomer, unassigned)
IC50 [µM]: 13
//
COMPOUND: COC(=O)[C@@H](c1ccc2ccccc2c1)[C@@H]1CCCCO1
IC50 [µM]: 0.43
//
COMPOUND: COC(=O)[C@@H](c1ccccc1)[C@@H]1CCCCO1
IC50 [µM]: 3
//
COMPOUND: N#CC(c1ccc(Cl)c(Cl)c1)C1CCCCC1 (configuration not stated)
IC50 [µM]: 0.127

Origin of values: ChEMBL document CHEMBL1136769
